Biological target: Monoglyceride lipase (Homo sapiens)
Sequence (whole entry): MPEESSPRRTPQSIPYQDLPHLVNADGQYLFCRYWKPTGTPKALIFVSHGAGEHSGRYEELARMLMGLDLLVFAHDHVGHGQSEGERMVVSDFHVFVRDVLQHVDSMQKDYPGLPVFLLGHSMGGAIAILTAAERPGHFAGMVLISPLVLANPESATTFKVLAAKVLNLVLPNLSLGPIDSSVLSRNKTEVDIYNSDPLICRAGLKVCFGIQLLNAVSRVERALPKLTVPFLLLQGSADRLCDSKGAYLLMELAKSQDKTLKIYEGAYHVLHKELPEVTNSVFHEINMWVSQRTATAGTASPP
Test: Ratio of N-phenylmaleimide IC50 to compound IC50 for human recombinant MGL
MEASURED ATTRIBUTE: Ratio IC50

>  <CHEMICAL STRUCTURE>
O=C1C=CC(=O)N1c1ccc(N2C(=O)C=CC2=O)cc1

>  <SYSTEM>
Monoglyceride lipase (Homo sapiens)

>  <Ratio IC50>
8

$$$$
>  <CHEMICAL STRUCTURE>
O=C1C=CC(=O)N1c1cccc(-c2ccccc2)c1

>  <SYSTEM>
Monoglyceride lipase (Homo sapiens)

>  <Ratio IC50>
10

$$$$
>  <CHEMICAL STRUCTURE>
O=C1C=CC(=O)N1c1cccc(N2C(=O)C=CC2=O)c1

>  <SYSTEM>
Monoglyceride lipase (Homo sapiens)

>  <Ratio IC50>
8

$$$$
>  <CHEMICAL STRUCTURE>
O=C1C=CC(=O)N1c1ccc(-c2ccccc2)cc1

>  <SYSTEM>
Monoglyceride lipase (Homo sapiens)

>  <Ratio IC50>
10

$$$$
>  <CHEMICAL STRUCTURE>
O=C1C=CC(=O)N1c1ccccc1-c1ccccc1

>  <SYSTEM>
Monoglyceride lipase (Homo sapiens)

>  <Ratio IC50>
10

$$$$

Value source: ChEMBL document CHEMBL1154772
